Test system: UACC-257 melanoma
Experiment: NCI-60 one-dose screen, 48 h
Details: 10 µM
This is part of a sample that, as a whole, favours compounds with a hit. Of some 83,000 tested, about 20% had one in any assay. Active and inactive are the calls of the source. The calls were made as follows: active = growth percent below 10; inactive = the rest.
Would you mind answering with one of these outcomes? T for active, F for inactive

Ask: Please state the recorded outcome for this molecule: CC(c1ccccc1)N1C(=O)/C(=C/c2csc(C#N)n2)SC1=S (centres undefined)
Result: F

Ask: Please state the recorded outcome for this molecule: `COc1ccc(NC(=O)[C@H](C)N)cc1C(=O)Nc1cccc(-c2cc(=O)c3c(OC)c(OC)c(OC)cc3o2)c1`
Result: F

Ask: Please state the recorded outcome for this molecule: `CCOC(=O)c1nn(-c2ccccc2)c(=O)c2c(N)c(C#N)c(-c3cccs3)cc12`
Result: F

Ask: Please state the recorded outcome for this molecule: `NS(=O)(=O)c1ccc(Nc2nc(N/N=C/c3ccc(C(F)(F)F)cc3)nc(Nc3ccccc3)n2)cc1`
Result: F

Ask: Please state the recorded outcome for this molecule: `COc1ccc(CCN2C(=O)CSC2=S)cc1OC`
Result: F

Ask: Please state the recorded outcome for this molecule: `COc1cc(CNC(=O)/C=C/c2ccccc2)ccc1OCC(=O)NO`
Result: F

Ask: Please state the recorded outcome for this molecule: `COc1ccc(CN2C(=O)/C(=C/c3nc(CO)cs3)SC2=S)cc1`
Result: F

Ask: Please state the recorded outcome for this molecule: `COc1ccc(-c2nnc(SCc3ccc(O)c4ncccc34)n2-c2ccccc2)cc1`
Result: F

Ask: Please state the recorded outcome for this molecule: COc1ccc(C2C(C#N)=C(N)Oc3c2sc2ccc(C)cc32)cc1 (centres undefined)
Result: F

Ask: Please state the recorded outcome for this molecule: `CCCCCCNC(=O)Oc1ccc(/C(=C(\C)c2ccc(OC)cc2)c2ccc(OCCN(C)C)cc2)cc1`
Result: T

Ask: Please state the recorded outcome for this molecule: `O=C(NCCCNc1cc(-c2cn(-c3ccccc3)nc2-c2cccc(O)c2)ccn1)Nc1cc(C(F)(F)F)cc(C(F)(F)F)c1`
Result: F

Ask: Please state the recorded outcome for this molecule: `Cc1ccc(NC(=O)c2ccc(CN3CCN(C)CC3)c(I)c2)cc1Oc1ccc(-c2[nH]nc3ncnc(N)c23)cc1`
Result: T

Ask: Please state the recorded outcome for this molecule: `Brc1cccc(/C=N/Nc2nc(N/N=C/c3cccc(Br)c3)nc(N3CCOCC3)n2)c1`
Result: F

Ask: Please state the recorded outcome for this molecule: `O=C(/C=C/c1cn(-c2ccccc2)nc1-c1ccc(Cl)cc1)c1cc2ccccc2oc1=O`
Result: F

Ask: Please state the recorded outcome for this molecule: `COc1cc(NC2=C(Cl)C(=O)c3nc(C)ccc3C2=O)cc(OC)c1`
Result: T

Ask: Please state the recorded outcome for this molecule: `C/C(=N\NC(=S)Nc1ccc(Br)cc1)c1cc2ccccc2oc1=O`
Result: F

Ask: Please state the recorded outcome for this molecule: `O=C(CCCCCCN1CC(=O)N2[C@@H](c3ccc(Cl)c(F)c3)c3[nH]c4ccccc4c3C[C@H]2C1=O)NO`
Result: F

Ask: Please state the recorded outcome for this molecule: `O=[N+]([O-])c1ccc(-c2nnc(SCc3ccc(O)c4ncccc34)o2)cc1`
Result: F

Ask: Please state the recorded outcome for this molecule: CC(=O)c1ccc(NC(=O)COc2ccc(C3SCC(=O)N3c3ccc(Br)cc3)cc2)cc1 (centres undefined)
Result: F
